These data points were gathered from paper PMC2944806.

- SYSTEM TESTED: HLA class I molecule A*2402 (Homo sapiens, UniProt P04439, D101N/D140Y/D185E/E176V/E190D/F33S/G103R/G107R/I119L/I121M/I306V/K335N/L105A/L180Q/L300P/N151K/N90K/Q86E/Q94H/R106L/R138H/R89G/T104I/T345S/V100E/W191G/Y123F)
- Construct: purchased ProImmune Ltd., Oxford, UK
- Assay type: binding
- EXPERIMENTAL SETUP: REVEAL assay, assembly of peptide-HLA complex by ELISA with conformation-dependent anti-HLA antibody, relative to positive control peptide for that allele, comparable within an allele only
MEASUREMENT LABEL: Score (experimentally measured binding affinity, % binding compared to control peptide) (%)

RESIDUES	RECORDED RESULT
IALETPARI [HTLV-1 nonamer peptide]	9.68
ICPINYSLL [HTLV-1 nonamer peptide]	69.19
TTPGLIWTF [HTLV-1 nonamer peptide]	215.15
GYPGRVNEI [HTLV-1 nonamer peptide]	82.68
PYNPTSSGL [HTLV-1 nonamer peptide]	104.86
RVIGSALQF [HTLV-1 nonamer peptide]	65.17
QAMRKYSPF [HTLV-1 nonamer peptide]	56.78
TFLKTAAPL [HTLV-1 nonamer peptide]	86.12
QYLCSSLVA [HTLV-1 nonamer peptide]	4.85
LWLAAFAAL [HTLV-1 nonamer peptide]	30.63
YWQGRLEAM [HTLV-1 nonamer peptide]	40.32
VSCPEDLLV [HTLV-1 nonamer peptide]	9.6
LSPPITWPL [HTLV-1 nonamer peptide]	4.52
KQIAEYLKR [HTLV-1 nonamer peptide]	3.56
AVLDGLLSL [HTLV-1 nonamer peptide]	1.41
SYGLLCQTI [HTLV-1 nonamer peptide]	114.37
TTPNIPPSF [HTLV-1 nonamer peptide]	0.43
KALMPVFTL [HTLV-1 nonamer peptide]	8.05
TWPLLPHVI [HTLV-1 nonamer peptide]	118.19
EYQQLWLAA [HTLV-1 nonamer peptide]	2.7
PYKRIEELL [HTLV-1 nonamer peptide]	99.06
NFLQAAYRL [HTLV-1 nonamer peptide]	113.8
ASGLFRCLP [HTLV-1 nonamer peptide]	4.14
AWQNGLLPF [HTLV-1 nonamer peptide]	92.6
DLMGEVNYW [HTLV-1 nonamer peptide]	62.28
VFTLSPVII [HTLV-1 nonamer peptide]	97.21

----------
- SYSTEM TESTED: HLA class I molecule B*3501 (Homo sapiens, UniProt P01889, A329T/A93T/A95T/C349S/D201E/D98Y/E176V/E187L/E204Q/E69T/I218V/K202T/L119I/Q94N/R155S/R180L/S121R/S35A/S48A/T118I/V127L/V306I/V36M/Y140S/Y91F)
- ASSAY INFO: REVEAL HLA-peptide binding assay, B*3501
- EXPERIMENTAL SETUP: assembly of peptide-HLA complex by ELISA with conformation-dependent anti-HLA antibody, relative to positive control peptide for that allele, comparable within an allele only
Reported Score (experimentally measured binding affinity, % binding compared to control peptide) values follow for various sequences
MEASUREMENT LABEL: Score (experimentally measured binding affinity, % binding compared to control peptide) (%)

RESIDUES	VALUE UNITS	RECORDED RESULT
DPISRLNAL [HTLV-1 nonamer peptide]	%	67.38
EPEPEEDAL [HTLV-1 nonamer peptide]	%	28.71
AVLDGLLSL [HTLV-1 nonamer peptide]	%	0
AASGLFRCL [HTLV-1 nonamer peptide]	%	7.33
KALMPVFTL [HTLV-1 nonamer peptide]	%	11.5
QPARAPVTL [HTLV-1 nonamer peptide]	%	55.56
